Taken from the supplement of paper PMC12042874.

test: amyloid nucleation score (Sup35N fusion, yeast selection) (log enrichment); library NNK3; higher = more nucleation; inactive = no reads after selection;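 note: zero at mode of non-aggregating sequences after 7 days selection at 30°C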
PROPERTY_MEASURED: amyloid nucleation score

INFTRSQYRFLIWYASQKMS
inactive
SSLLKFDFPVLPCHDLRLAL
inactive
SIQYIYFDASQMRIENSRSL
2.37
CLLRSSCGWMCLRTGTHCVV
0.729

Query :: What value of amyloid nucleation score has been reported for the following sequence? `VTSGLERTMFSGNKRRIEVS`
Result :: inactive

Query :: What measured amyloid nucleation score goes with `MSIIKKIG` ?
Result :: inactive

Query :: Look up amyloid nucleation score for this sequence: `INHLSWCPVYFYFWNPVYLR`
Result :: 1.49

Query :: Look at this sequence and give its reported amyloid nucleation score. `NGFSFRLGWH`
Result :: 1.55

Query :: # input sequence: `LNLWPNSD` ; wanted: its amyloid nucleation score
Result :: inactive
